assay: Toxicity liver stage against HepG2, at 10uM; assay type: cell-based; parameters: test concentration 10 uM, cell line HepG2-A16-CD81EGFP; details: human, HepG2-A16-CD81EGFP cells; read-out: INHIBITION
TEST_READOUT: cytotoxicity at 10 µM (%)
Reply numerically in %, unit not repeated.

Report cytotoxicity at 10 µM for `O=C(CN1CCC(c2nnc(C(F)(F)F)o2)CC1)Nc1cccc(Cl)c1` please.
-1.53

Report cytotoxicity at 10 µM for `Cc1ccc(NC2CCN(C(=O)c3cccc4ncccc34)CC2)nn1` please.
7.51

Report cytotoxicity at 10 µM for Cc1nc2cc(C3CCOCC3)nn2c(NCC2COCCO2)c1C (centres undefined) please.
0.135

Report cytotoxicity at 10 µM for `Cc1cnn(CCNCc2nc(-c3ccsc3)oc2C)c1` please.
-3.55

----------
assay: Toxicity liver stage against HepG2, at 10uM; assay type: cell-based; parameters: test concentration 10 uM, cell line HepG2-A16-CD81EGFP; conditions: human, HepG2-A16-CD81EGFP cells; read-out: INHIBITION
TEST_READOUT: cytotoxicity at 10 µM (%)
Reply numerically in %, unit not repeated.

Sample records with cytotoxicity at 10 µM:
O=C(CNC(=O)C1(c2ccc(F)cc2F)CCC1)Nc1cccnc1 : -5.82
CC(=O)N1CCOC[C@H](Oc2ccc(C(F)(F)F)cc2)C1 : 2.65

Report cytotoxicity at 10 µM for `COc1cc(CN2CCC3(CC2)[C@H](O)C[C@@H]3OCCO)ccc1F` please.
-12.2

Report cytotoxicity at 10 µM for COc1ccc(C(CNC(=O)Nc2cc(C)nn2C)N(C)C)cc1 (centres undefined) please.
3.31

----------
experiment: Toxicity liver stage against HepG2, at 10uM; type: cell-based; parameters: test concentration 10 uM, cell line HepG2-A16-CD81EGFP; settings: human, HepG2-A16-CD81EGFP cells; read-out: INHIBITION
TEST_READOUT: cytotoxicity at 10 µM (%)
Reply numerically in %, unit not repeated.

COc1ccc(N2CCC(C(=O)/N=c3/[nH]ccs3)CC2)nn1 : -13.6
Cc1cnc(N2CC[C@@H](N3CCOCC3)[C@@H]2Cc2ccncc2)nc1 : 4.47

Next, consider the following molecule.
Report cytotoxicity at 10 µM for NC(=O)C1CCCN1Cc1ccccc1NC(=O)CC(F)(F)F (configuration not stated) please.
13.1

----------
assay: Toxicity liver stage against HepG2, at 10uM; type: cell-based; parameters: test concentration 10 uM, cell line HepG2-A16-CD81EGFP; details: human, HepG2-A16-CD81EGFP cells; read-out: INHIBITION
Reported cytotoxicity at 10 µM values follow for various compounds
Include the unit after the number when you answer.

Sample records with cytotoxicity at 10 µM:
CCN1CCOC(CNCc2ccc(C)s2)C1 (stereo not drawn) : 2.35%
O=C(Nc1cccnc1)N1CCC(n2ccc(C(F)(F)F)n2)CC1 : -6.08%
COCc1cncc2c1CCN(Cc1cccnc1)C2 : 3.91%

Report cytotoxicity at 10 µM for COc1ccc2c(c1)C(C(=O)NCCN1CCNC1=O)CC(=O)N2 (stereo not drawn) please.
-1.13%

Report cytotoxicity at 10 µM for `CC(=O)c1ccc(OCC(=O)NS(=O)(=O)c2ccc(Cl)s2)cc1` please.
1.77%

Report cytotoxicity at 10 µM for `O=c1cc(-c2cccnc2)nc(-c2ccc(CN3CC[C@H](O)C3)cc2)[nH]1` please.
3.98%

Report cytotoxicity at 10 µM for `CC(C)NC(=O)Nc1ccccc1CN1CCOCC1` please.
4.89%

Report cytotoxicity at 10 µM for CC(NC(=O)COc1ccccc1Cl)c1nnc2n1CCC2 (stereo not drawn) please.
-6%

----------
experiment: Toxicity liver stage against HepG2, at 10uM; format: cell-based; parameters: test concentration 10 uM, cell line HepG2-A16-CD81EGFP; conditions: human, HepG2-A16-CD81EGFP cells; read-out: INHIBITION
Reported cytotoxicity at 10 µM values follow for various compounds
Reply numerically in %, unit not repeated.

CCc1nc(CC(=O)N2CCC(C(=O)N(CC)CC)CC2)cs1 : -1.42
COc1ccc(-c2cnc(N(C)C)nc2C2CNCCO2)cc1 (configuration not stated) : -1.4
COc1ccc(NC(=O)N2CCCCC2c2ncc[nH]2)cc1 (configuration not stated) : 10.4
CC(c1ccc(S(C)(=O)=O)cc1)N(C)C(=O)c1ccccc1I (configuration not stated) : 11.1
Cc1cnc(N2CCC3(CC2)CC(NS(C)(=O)=O)CO3)nc1 (configuration not stated) : 2.87
Brc1cc(CNCc2nnc3n2CCC3)cs1 : -6.22
CCCc1cc(C(=O)N[C@@H]2CC[C@@H](N3CCOCC3)[C@@H]2O)no1 : -3.59
O=C(NCCNc1ccccn1)N1CCSCC1 : -9.58

Report cytotoxicity at 10 µM for `CCc1nc(C(=O)N(C)CC(=O)N(C)C)nn1-c1ccccc1Cl` please.
-23.5

Report cytotoxicity at 10 µM for CC(=O)N1CCOC2(CCCN(Cc3ccc(N(C)C)cc3)C2)C1 (configuration not stated) please.
0.603

Report cytotoxicity at 10 µM for `C=C(C)COc1ccccc1C(=O)NCCc1cc(O)nc(C)n1` please.
-0.355

Report cytotoxicity at 10 µM for `Cc1cc(C)n2c(CCCNS(=O)(=O)c3ccccc3)nnc2n1` please.
1.18

Report cytotoxicity at 10 µM for `CNC(=O)[C@@]12CCO[C@@H]1CCN(Cc1scnc1C)C2` please.
6.12

Report cytotoxicity at 10 µM for CSc1ccc(CN2CCCC3(CNC(=O)c4ccccc4O3)C2)cc1 (configuration not stated) please.
3.52

Report cytotoxicity at 10 µM for `CC(C)NC(=O)c1nnn(-c2cccc(F)c2)c1C1CC1` please.
-0.0198

Report cytotoxicity at 10 µM for `CC(=O)N[C@@H]1CN(Cc2oc3ccccc3c2C)C[C@H]1c1ccc(C)o1` please.
-12.3

Report cytotoxicity at 10 µM for CN(C)C(=O)CN1CCC2(COCc3cnc(-c4ccccc4)nc32)C1 (configuration not stated) please.
-96.7

Report cytotoxicity at 10 µM for `N#Cc1cccc(C(=O)N2CC(c3nc(-c4cccnc4)no3)C2)c1` please.
-6.03

Report cytotoxicity at 10 µM for `Cc1noc(C)c1CN(C)c1nc(C2CCCC2)nc2c1cnn2C` please.
22.2

Report cytotoxicity at 10 µM for `COc1ccc2c(c1)C1(CCN(Cc3ccccn3)CC1)N(C)CC2` please.
-150

Report cytotoxicity at 10 µM for `CNc1ncc(CN(C)Cc2cc(O)c3cc(C)cc(C)c3n2)cn1` please.
-13.9

Report cytotoxicity at 10 µM for `CNS(=O)(=O)c1ccc(C(=O)NCCNc2ncccn2)cc1` please.
-5.95

----------
Reported cytotoxicity at 10 µM values follow for various compounds
experiment: Toxicity liver stage against HepG2, at 10uM; assay type: cell-based; parameters: test concentration 10 uM, cell line HepG2-A16-CD81EGFP; settings: human, HepG2-A16-CD81EGFP cells; read-out: INHIBITION
Reply numerically in %, unit not repeated.

Report cytotoxicity at 10 µM for CNC(=O)C1CCCN(c2nc(-c3ccco3)nc3c2CCNCC3)C1 (stereo not given) please.
-7.74

Report cytotoxicity at 10 µM for Cc1ccc(CN2CC(C(=O)Nc3ccccc3)C3(CCOCC3)C2)s1 (stereo not given) please.
-17.5

Report cytotoxicity at 10 µM for `O=C(NCCOc1ncc(Cl)cc1Cl)c1ccncc1F` please.
-3.78

Report cytotoxicity at 10 µM for `COC(=O)NCC(=O)N(C)Cc1csc(-c2cccs2)n1` please.
-2.67

----------
Reported cytotoxicity at 10 µM values follow for various molecules
assay: Toxicity liver stage against HepG2, at 10uM; assay type: cell-based; set-up: test concentration 10 uM, cell line HepG2-A16-CD81EGFP; conditions: human, HepG2-A16-CD81EGFP cells; read-out: INHIBITION
Reply numerically in %, unit not repeated.

COc1ncc(C(=O)N2CCCC3(C=Cc4ccccc4O3)CC2)cn1 (stereo not drawn) : 7.61
CCn1cc(CN2CCCN(C(=O)c3ccc(C)o3)CC2)cn1 : -13.9
Cc1cc(C(=O)O)cc(S(=O)(=O)Nc2ccc3c(c2)OCO3)c1C : 0.89
Cc1nc(C)n(CC2CN(CCOCC(F)(F)F)CCO2)n1 (stereo not drawn) : -1.95
Cc1ncnc(NCc2cc3n(n2)CCCN(S(C)(=O)=O)C3)c1C : -8.42

Report cytotoxicity at 10 µM for `CSc1ncn(-c2nc(N(C)C)nc(N(C)C)n2)n1` please.
-3.54

Report cytotoxicity at 10 µM for CCC(C)NC(=O)c1cccc(CNCc2csc(C(C)C)n2)c1 (stereo not drawn) please.
9.48

Report cytotoxicity at 10 µM for Cc1cnc(CN(C)C2CCN(Cc3nc4ccccc4n3C)C2)o1 (stereo not drawn) please.
2.57
